B1: CPEB3 Ribozyme (parent)
chain: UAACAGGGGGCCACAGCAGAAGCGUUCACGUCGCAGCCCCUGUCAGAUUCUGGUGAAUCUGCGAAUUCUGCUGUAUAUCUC

Variants of: B1
Assay: self-cleavage, relative activity (ratio to wild type); higher = more cleavage; in vitro, sequencing
result-type: self-cleavage
Just the number.

Here is how some variants turned out for self-cleavage.
alteration	numeric-readout
U51C A57G	0.91
A3U U41C	1.05
A13C A18G	0.67
A57U C62U	0.21
C38U A64G	0.37

Give reported self-cleavage value for A47G U74C
1.13

Give the measured self-cleavage for C59A G73U
1.11

Fill in self-cleavage for record A5U C68A
0.29

Fill in self-cleavage for record G16C U54C
0.46

Report measured self-cleavage; entry is A3G C14A
1.13

Please list self-cleavage recorded for the variant U49C U76C
0.48

Complete the entry with self-cleavage for U51C A56G
0.84

Output self-cleavage of C34U U69C
0.35

State its self-cleavage: A18G G36C
0.13

In one line, give reported self-cleavage of the entry U26C U76G .
0.55

Report self-cleavage for A64U U78G
0.35

State, in one line, measured self-cleavage of U54C U66G
0.39

Please report the measured self-cleavage for U1C C40U
0.3
